The origin of these recorded values is patent US20190233498A1.

system-tested: T1, human VIP (human)
T1 construct: also called Vasoactive Intestinal Peptide
T1 peptide: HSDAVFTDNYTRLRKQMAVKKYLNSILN
experiment-notes: SPR, Ab immobilised
From the text: [The procedure below names another target; the source says it served here with some conditions changed.] Binding affinities of monoclonal antibodies for human PACAP were estimated using SPR on the PROTEON™ XPR36 (Bio-Rad, Hercules, Calif.). Antibody was immobilized to the surface of general amine coupling (“GLC” or “GLM”) Chips (Bio-Rad, Hercules, Calif.). […]
observation-type: kon

Incoming: Please give the measured kon for this binder: anti-PACAP antibody Ab16 (antibody, human IgG1, kappa, N297A, V domains shown, full-length rabbit/human chimeric antibody) VH: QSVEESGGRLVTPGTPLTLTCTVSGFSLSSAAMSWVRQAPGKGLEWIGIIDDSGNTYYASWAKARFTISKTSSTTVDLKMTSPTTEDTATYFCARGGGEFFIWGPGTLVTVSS VL: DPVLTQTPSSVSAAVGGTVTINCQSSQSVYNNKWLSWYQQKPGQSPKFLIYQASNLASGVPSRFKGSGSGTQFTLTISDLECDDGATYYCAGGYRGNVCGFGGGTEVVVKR
Outgoing: 360000 M⁻¹ s⁻¹
